# measurement_target: Insulin-degrading enzyme (Homo sapiens)
# test_method_notes: Inhibition of human recombinant IDE-mediated FRET1 degradation
# test_parameters: read-out: Ki(app)
value_type: Ki (nM)

Recorded results for 8 compounds are shown here.
- structure_notation: "NC(=O)[C@H](CCC(=O)O)NC(=O)[C@H](Cc1c[nH]c2ccccc12)NC(=O)[C@H](CCCN=C(N)N)NC(=O)[C@H](Cc1ccc2ccccc2c1)[C@@H](O)C(=O)NO"
  units_label: "nM"
  Ki: 103
- structure_notation: "C=CCOC(=O)[C@H](CCCNC(=N)N)NC(=O)[C@H](CC(=O)NO)Cc1ccc2ccccc2c1"
  units_label: "nM"
  Ki: 5280
- structure_notation: "CC(=O)N[C@@H](CCC(=O)NCCNc1cccc2c(S(=O)(=O)O)cccc12)C(=O)N[C@H](Cc1ccc(O)cc1)C(=O)N(C(=O)c1ccccc1)[C@H](Cc1ccccc1)C(=O)N[C@H](Cc1ccc2ccccc2c1)C(=O)NO"
  units_label: "nM"
  Ki: 43.7
- structure_notation: "NC(=O)[C@H](CCCN=C(N)N)NC(=O)[C@H](Cc1ccc2ccccc2c1)[C@H](O)C(=O)NO"
  units_label: "nM"
  Ki: 7750
- structure_notation: "N=C(N)NCCC[C@H](NC(=O)[C@H](CC(=O)NO)Cc1ccc2ccccc2c1)C(=O)N[C@@H](Cc1c[nH]c2ccccc12)C(=O)N[C@@H](CCC(=O)O)C(N)=O"
  units_label: "nM"
  Ki: 73.3
- structure_notation: "NC(=O)[C@H](CCCN=C(N)N)NC(=O)[C@@H](CC(=O)NO)Cc1ccc2ccccc2c1"
  units_label: "nM"
  Ki: 1150
- structure_notation: "NC(=O)[C@H](CCC(=O)O)NC(=O)[C@H](Cc1c[nH]c2ccccc12)NC(=O)[C@H](CCCN=C(N)N)NC(=O)[C@H](Cc1ccc2ccccc2c1)[C@H](O)C(=O)NO"
  units_label: "nM"
  Ki: 25.9
- structure_notation: "N=C(N)NCCC[C@H](NC(=O)[C@@H](CC(=O)NO)Cc1ccc2ccccc2c1)C(=O)N[C@@H](Cc1c[nH]c2ccccc12)C(=O)N[C@@H](CCC(=O)O)C(N)=O"
  units_label: "nM"
  Ki: 2.96

I: NC(N)=NCCC[C@@H](NC(=O)[C@@H](Cc1c[nH]c2ccccc12)NC(=O)[C@H](N)CCC(=O)O)C(=O)N[C@H](Cc1ccc2ccccc2c1)C(=O)NO
II: NC(=O)[C@H](CCCN=C(N)N)NC(=O)[C@H](Cc1ccc2ccccc2c1)[C@@H](O)C(=O)NO
In: Of the two listed items, I and II , which carries the larger Ki figure? # reply format: chosen label
Out: II

###

# measurement_target: Insulin-degrading enzyme (Homo sapiens, UniProt P14735)
# Sequence (P14735 whole entry): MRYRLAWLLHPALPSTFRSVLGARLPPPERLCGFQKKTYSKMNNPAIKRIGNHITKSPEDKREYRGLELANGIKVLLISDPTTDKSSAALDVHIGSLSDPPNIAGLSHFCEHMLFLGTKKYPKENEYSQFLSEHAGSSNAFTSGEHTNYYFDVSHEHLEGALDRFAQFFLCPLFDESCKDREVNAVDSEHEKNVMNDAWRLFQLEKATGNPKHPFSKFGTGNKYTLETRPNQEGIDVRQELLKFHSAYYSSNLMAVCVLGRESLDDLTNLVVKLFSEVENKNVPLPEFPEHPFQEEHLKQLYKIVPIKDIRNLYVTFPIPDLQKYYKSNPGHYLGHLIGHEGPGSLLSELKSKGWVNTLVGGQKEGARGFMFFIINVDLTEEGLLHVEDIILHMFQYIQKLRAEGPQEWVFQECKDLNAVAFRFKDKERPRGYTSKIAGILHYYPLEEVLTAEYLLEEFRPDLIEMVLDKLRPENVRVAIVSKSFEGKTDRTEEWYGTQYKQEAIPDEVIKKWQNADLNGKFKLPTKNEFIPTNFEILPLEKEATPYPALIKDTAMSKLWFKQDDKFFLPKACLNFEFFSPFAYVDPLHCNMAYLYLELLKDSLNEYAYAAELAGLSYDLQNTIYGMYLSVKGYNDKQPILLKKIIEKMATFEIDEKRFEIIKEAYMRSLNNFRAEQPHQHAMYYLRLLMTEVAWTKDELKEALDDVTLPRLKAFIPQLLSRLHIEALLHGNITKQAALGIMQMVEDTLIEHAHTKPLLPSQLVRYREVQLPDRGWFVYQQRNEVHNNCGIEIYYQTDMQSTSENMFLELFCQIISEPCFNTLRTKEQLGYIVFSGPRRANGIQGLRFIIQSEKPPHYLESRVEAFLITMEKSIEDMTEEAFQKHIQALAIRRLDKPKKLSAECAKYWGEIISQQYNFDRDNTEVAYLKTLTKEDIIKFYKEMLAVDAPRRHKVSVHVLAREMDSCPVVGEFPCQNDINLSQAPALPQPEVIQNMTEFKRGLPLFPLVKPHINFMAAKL
# test_method_notes: Inhibition of human recombinant IDE-mediated FRET1 degradation
# test_parameters: read-out: Ki(app)
Reported Ki values follow for various compounds

Recorded results for 3 compounds are shown here.
- structure_notation: "N=C(N)NCCCC[C@H](NC(=O)[C@H](Cc1ccc2ccccc2c1)[C@H](O)C(=O)NO)C(N)=O"
  result: "> 33 µM"
- structure_notation: "N=C(N)NCCCC[C@H](NC(=O)[C@@H](CC(=O)NO)Cc1ccc2ccccc2c1)C(N)=O"
  result: "> 33 µM"
- structure_notation: "NC(=O)[C@H](CCCN=C(N)N)NC(=O)[C@H](CC(=O)NO)Cc1ccc2ccccc2c1"
  result: "> 33 µM"

Ki value, target or system Insulin-degrading enzyme (Homo sapiens, UniProt P14735), for "N=C(N)NCCCC[C@H](NC(=O)[C@H](CC(=O)NO)Cc1ccc2ccccc2c1)C(N)=O" : > 33 µM

Ki value, target or system Insulin-degrading enzyme (Homo sapiens, UniProt P14735), for "CC(=O)N[C@@H](CCC(=O)O)C(=O)N[C@@H](Cc1c[nH]c2ccccc12)C(=O)N[C@@H](CCCN=C(N)N)C(=O)[C@H](CC(=O)NO)Cc1ccc2ccccc2c1" : 0.078 µM

Hey, just so you know, these numbers are from ChEMBL document CHEMBL2321806.
